Tested on: HOP-62 NSCLC
Assay: NCI-60 one-dose screen, 48 h (100 = growth as untreated, 0 = no growth, -100 = all killed)
Conditions: 10 µM unless noted
The panel holds about 83,000 compounds, 20% with a hit somewhere; the sample as a whole holds those more often.
Assay Metric: growth (%)

> print(dat)
                                   compound  recorded.result
1  CC(C)C[C@H](NC(=O)[C@@H](Cc1ccccc1)n1ccc(Nc2ccccc2)cc1=O)B(O)O            -21.6
2  C=C1C(=O)O[C@H]2[C@H]1CC/C(Cn1cc(-c3ccccc3C(F)(F)F)nn1)=C\CC[C@@]1(C)O[C@@H]21             37.3
3  COc1ccc(-n2cnc3c(sc4ncc(Cl)cc43)c2=O)cc1             96.9
4    CSc1ccccc1C#C/C=C\C#Cc1ccccc1N1CCCC1=O             60.2
5  CCCC(C(=O)OCC)C(C)OC(=O)OCC (stereo unspecified)             93.3
6   COc1cc(NCCN=C(N)NC(N)=NC(C)C)c2ncccc2c1             94.8
